Assign abundance fitness to each entry below.
B1: Arginine-glutamic acid dipeptide repeats protein, residues 502 to 543; numbered along this chain, Q9P2R6 (parent)
chain: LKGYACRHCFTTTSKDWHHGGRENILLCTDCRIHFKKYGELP

# Variants of: B1
# assay-overview: abundance fitness (aPCA) (normalised: wild type 0, dead -1); higher = more abundant; growth selection in yeast, the domain comes from the species named
# condition-summary: Homo sapiens

Past entries and their recorded results:
mutant	abundance fitness
C9N	-0.271
K36N	0.248
K37A	-0.034
G20S	-0.212
D16M	-0.397

Go through the items and report each one's abundance fitness.
1. G39R
2. C9E
3. C9P

Reply:
-0.118
-0.318
-0.494

Go through the items and report each one's abundance fitness.
1. H8C
2. Y4C
3. K2Y
4. K2P
5. T11V
6. K15V
7. Y38K

Reply:
1: -0.259; 2: -0.117; 3: -0.477; 4: -0.357; 5: -0.195; 6: -0.091; 7: -0.002
